# target_or_test_system: Peptide 1: Biotin-…-[Tyr(PC)]-acid
# Sequence (peptide, as listed by the source): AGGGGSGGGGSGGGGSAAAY
# procedure_text: scFv ELISA
Overview of reported OD450 across a group of binders:

binder: PcOxP_DB01_D02 (scFv, V domains shown, scFv in periplasmic extract) VH: EVQLLESGGGLVQPGGSLRLSCAASGFEFSDFYMEWVRQAPGKGLEWVAASRGKGNSYTTEYADSVKGRFTISRDNSKNTLYLQMNSLRAEDTAVYYCARDYYGSSYWYFDVWGQGTLVTVSS VL: DIQMTQSPSSLSASVGDRVTITCTASESLYSSKHKVHYLAWYQQKPGKAPKLLIYGASNRYIGVPSRFSGSGSGTDFTLTISSLQPEDFATYYCGQFYSYPLTFGGGTKVEIK
OD450 [OD450]: 0.56
--
binder: PcOxP_DB04_H03 (scFv, V domains shown, scFv in periplasmic extract) VH: EVQLLESGGGLVQPGGSLRLSCAASGFPFSDFYMEWVRQAPGKGLEWVAASRNKANDYTTEYADSVKGRFTISRDNSKNTLYLQMNSLRAEDTAVYYCARDYYGSSYWYFDVWGQGTLVTVSS VL: DIQMTQSPSSLSASVGDRVTITCRASESLYSSLHKYLAWYQQKPGKAPKLLIYGASNLQIGVPSRFSGSGSGTDFTLTISSLQPEDFATYYCAQFYSYPLTFGGGTKVEIK
OD450 [OD450]: 0.8
--
binder: PcOxP_DB04_D01 (scFv, V domains shown, scFv in periplasmic extract) VH: EVQLLESGGGLVQPGGSLRLSCAASGFTFSDYYMEWVRQAPGKGLEWVAASRNKGNDYTTAYADSVKGRFTISRDNSKNTLYLQMNSLRAEDTAVYYCARDYYGSSYWYFDVWGQGTLVTVSS VL: DIVMTQSPDSLAVSLGERATINCTASESLYSSKHKVHYLAWYQQKPGQPPKLLIYGASQRYIGVPDRFSGSGSGTDFTLTISSLQAEDVAVYYCAQFYSYPLTFGGGTKVEIK
OD450 [OD450]: 1.23
--
binder: PcOxP_DB02_F06 (scFv, V domains shown, scFv in periplasmic extract) VH: EVQLLESGGGLVQPGGSLRLSCAASGFTFSDEYMEWVRQAPGKGLEWVAASRNKANDFTTEYADSVKGRFTISRDNSKNTLYLQMNSLRAEDTAVYYCARDFYGSSYWYFDVWGQGTLVTVSS VL: DIVMTQSPDSLAVSLGERATINCTASESIYSSKHKVHYLAWYQQKPGQPPKLLIYGASNRYIGVPDRFSGSGSGTDFTLTISSLQAEDVAVYYCAQFYSYPLTFGGGTKVEIK
OD450 [OD450]: 0.16
--
binder: PcOxP_DB01_G10 (scFv, V domains shown, scFv in periplasmic extract) VH: EVQLLESGGGLVQPGGSLRLSCAASGFTFSDFYMEWVRQAPGKGLEWVAASRNKNNDYTTEYADSVKGRFTISRDNSKNTLYLQMNSLRAEDTAVYYCARDYYGSSYWYFDVWGQGTLVTVSS VL: DIVMTQSPDSLAVSLGERATINCKASQSLYSSKHKKHYLAWYQQKPGQPPKLLIYGASNRYPGVPDRFSGSGSGTDFTLTISSLQAEDVAVYYCAQFYRYPLTFGGGTKVEIK
OD450 [OD450]: 0.71
